Numbers sourced from patent US20190337971A1.

Assay: Stability in human whole blood
Assay type: in vitro ADME
Details: Diastereoisomer A (upfield shift in 31P NMR), 37° C., up to 60 min, read-out: t1/2 (h) Human Whole Blood Diastereoisomer A (converted)
PROPERTY LABEL: half-life at 3 μM (h)
One number for each entry, in h.

COMPOUND: CC(=O)SCCNC(=O)CCNC(=O)[C@@H]1OP(=O)(OCOC(=O)NCCOC(=O)C(C)(C)C)OCC1(C)C (stereo partly shown)
UOM: h
MEASUREMENT: 0.5

COMPOUND: CC(=O)SCCNC(=O)CCNC(=O)[C@@H]1OP(=O)(OCOC(=O)c2ccnn2C)OCC1(C)C (stereo partly shown)
UOM: h
MEASUREMENT: 0.42

COMPOUND: CC(=O)SCCNC(=O)CCNC(=O)[C@@H]1OP(=O)(OCOC(=O)NC(C)(C)COC(=O)[C@@H](N)C(C)C)OCC1(C)C (stereo partly shown)
UOM: h
MEASUREMENT: 0.41

Please find the next compound below.
Using the record for CC(=O)SCCNC(=O)CCNC(=O)[C@@H]1O[P@](=O)(OCOC(=O)NCCOC(=O)C(C)(C)C)OCC1(C)C , state its measured half-life at 3 μM.
0.41

* * *

Test: Stability in human whole blood
Format: in vitro ADME
Details: Diastereoisomer B, 37° C., up to 60 min, read-out: t1/2 (h) Human Whole Blood Diastereoisomer B (converted)
Consider the following molecules; for each one, report its half-life at 3 μM.

MOLECULE: CC(=O)OCOP1(=O)OCC(C)(C)[C@H](C(=O)NCCC(=O)NCCSC(C)=O)O1 (stereo partly drawn)
PROPERTY LABEL: half-life at 3 μM
MEASUREMENT: < 0.16 h
//
MOLECULE: CC(=O)SCCNC(=O)CCNC(=O)[C@@H]1OP(=O)(OCOC(=O)c2ccnn2C)OCC1(C)C (stereo partly drawn)
PROPERTY LABEL: half-life at 3 μM
MEASUREMENT: < 0.16 h
//
MOLECULE: COC(=O)[C@@H](N[P@]1(=O)OCC(C)(C)[C@H](C(=O)NCCC(=O)NCCSC(C)=O)O1)C(C)C
PROPERTY LABEL: half-life at 3 μM
MEASUREMENT: > 1 h

Your task in this section: give half-life at 3 μM for each listed record.
1. CC(=O)SCCNC(=O)CCNC(=O)[C@@H]1OP(=O)(OCOC(=O)c2scnc2C)OCC1(C)C (stereo partly drawn)
2. CC(=O)SCCNC(=O)CCNC(=O)[C@@H]1OP(=O)(OCOC(=O)c2cc(C)nn2C)OCC1(C)C (stereo partly drawn)
3. CC(=O)SCCNC(=O)CCNC(=O)[C@@H]1O[P@](=O)(OCOC(=O)c2cc(C(C)(C)C)n[nH]2)OCC1(C)C

< 0.16 h
< 0.16 h
< 0.16 h
